Numbers sourced from ChEMBL document CHEMBL3612057.

System: ACHN
Test: Cytotoxicity against human ACHN cells assessed as growth inhibition at 10 uM after 24 hrs by SRB assay
Assay type: functional
Details: read-out: GI
The label depends only on inhibition of growth at 10 µM: fulfilled if it is at least 30%, not fulfilled if it is smaller.

Please tell me: is the compound COc1ccc(C(=O)c2cc(-c3nc(OC)nc(OC)n3)c3ccccn23)cc1 at or over 30% in terms of inhibition of growth at 10 µM?
fulfilled

Hello, I need to know if COc1nc(OC)nc(-c2cc(C(=O)c3ccc(Br)cc3)n3c2ccc2ccccc23)n1 has measured inhibition of growth at 10 µM not below 30%. Thanks!
not fulfilled

Hi, just wondering whether COc1nc(OC)nc(-c2cc(C(=O)c3ccc(Br)cc3)n3ccc4ccccc4c23)n1 shows inhibition of growth at 10 µM of 30% or higher.
not fulfilled

Entry COc1nc(OC)nc(-c2cc(C(=O)c3ccc(Br)cc3)n3ccccc23)n1 : is its inhibition of growth at 10 µM no less than 30%?
fulfilled

Confirm if inhibition of growth at 10 µM reported for the compound COc1nc(OC)nc(-c2cc(C(=O)c3cc(OC)c(OC)c(OC)c3)n3ccc(C)cc23)n1 is 30% or above.
fulfilled

Does inhibition of growth at 10 µM meet or surpass 30% for COc1nc(OC)nc(-c2cc(C(=O)c3ccc(C)cc3)n3ccc(C#N)cc23)n1 ?
not fulfilled

Determine whether this compound has inhibition of growth at 10 µM no lower than 30%: COc1nc(OC)nc(-c2cc(C(=O)c3ccc(Cl)cc3)n3ccccc23)n1
fulfilled
